Attribution: patent US10538555B2

Measured IC50 of individual entries
- subject-of-test: Human PD-L1/PD-1 (Homo sapiens, UniProt Q9NZQ7)
- Construct: TVMV protease cleavage site (C); made in house; host or cells: HEK293T cells
- Sequence (Q9NZQ7 with tags, fused parts or gaps): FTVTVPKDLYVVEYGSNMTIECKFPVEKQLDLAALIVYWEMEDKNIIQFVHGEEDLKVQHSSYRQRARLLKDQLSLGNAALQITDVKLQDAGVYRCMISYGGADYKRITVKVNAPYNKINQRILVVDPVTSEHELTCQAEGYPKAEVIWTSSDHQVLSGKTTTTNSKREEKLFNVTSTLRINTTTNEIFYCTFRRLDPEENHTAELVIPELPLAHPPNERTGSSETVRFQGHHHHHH
- method: HTRF Human PD-L1/PD-1 binding assay (PD-1-Ig/PD-L1-His)
- experimental-parameters: PD-L1-His 10 nM, PD-1-Ig 20 nM; class symbol; read-out: HTRF Human PD-L1/PD-1 Binding Assay IC50 Range
Where a SMILES comes first, the peptide text is derived from it. Bridges are numbered along the chain shown (N, C = ends). [ ]: non-standard residue; d: D form. ξ: configuration not given here. Hyp = O=C(O)[C@@H]1C[C@@H](O)CN1; NMeNle = CCCC[C@H](NC)C(=O)O; Pip = O=C(O)[C@@H]1CCCCN1; NMeA = CN[C@@H](C)C(=O)O; Dap = NC[C@H](N)C(=O)O; ξC = NC(CS)C(=O)O

Data request: So what does the record say about IC50 for CCCC[C@H]1C(=O)N(C)[C@@H](CCCC)C(=O)N[C@@H](CC(C)C)C(=O)N[C@H](C(=O)NCC(N)=O)CSCC(=O)N[C@@H](Cc2ccc(O)cc2)C(=O)N2CCCC[C@H]2C(=O)N[C@@H](CC(=O)O)C(=O)N2CCC[C@H]2C(=O)N[C@@H](CN)C(=O)N[C@@H](CCC(=O)O)C(=O)N2C[C@H](O)C[C@H]2C(=O)N[C@@H](Cc2c[nH]c3ccccc23)C(=O)N[C@@H](CO)C(=O)N[C@@H](Cc2c[nH]c3ccccc23)C(=O)N1C [Example 1272] ({CH2CO}-Y[Pip]DP[Dap]E[Hyp]WSW[NMeNle][NMeNle]LCG-NH2; thioether N-14) ?
Data returned: 1 to 9.9 nM

Data request: Could you do the same for CCCC[C@H]1C(=O)N(C)[C@@H](C)C(=O)N[C@@H](CCCNC(=N)N)C(=O)NC(C(=O)N[C@@H](CO)C(N)=O)CSCC(=O)N[C@@H](Cc2ccc(O)cc2)C(=O)N(C)[C@@H](C)C(=O)N[C@@H](CC(N)=O)C(=O)N2CCC[C@H]2C(=O)N[C@@H](CO)C(=O)N[C@H](CC(C)C)C(=O)N2CCC[C@H]2C(=O)N[C@@H](Cc2c[nH]c3ccccc23)C(=O)N[C@@H](CO)C(=O)N[C@@H](Cc2c[nH]c3ccccc23)C(=O)N1C (stereo partly drawn) [Example 9121] ({CH2CO}-Y[NMeA]NPS[dL]PWSW[NMeNle][NMeA]R[ξC]S-NH2; thioether N-14) , please?
Data returned: 10 to 99.9 nM
